FYI, the data here is from paper PMC9352680.

target.desc: T1, PUF4 RNA-binding domain (Saccharomyces cerevisiae, UniProt P25339 537-888)
T1 sequence: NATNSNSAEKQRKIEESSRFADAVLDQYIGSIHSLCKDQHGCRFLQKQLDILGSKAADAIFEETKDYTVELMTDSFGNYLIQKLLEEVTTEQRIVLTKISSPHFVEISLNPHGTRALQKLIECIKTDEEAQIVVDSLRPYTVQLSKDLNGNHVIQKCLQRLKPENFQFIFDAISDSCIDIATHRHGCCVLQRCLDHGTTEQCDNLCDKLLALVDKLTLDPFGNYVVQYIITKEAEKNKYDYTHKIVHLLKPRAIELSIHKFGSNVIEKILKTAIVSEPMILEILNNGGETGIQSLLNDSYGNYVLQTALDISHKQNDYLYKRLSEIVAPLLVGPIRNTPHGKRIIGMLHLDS
protocol: Mg; RNA-MaP; 20 mM Na-HEPES pH 7.4, 30 mM KOAc, 0.75 mM MgCl2, 0.1% Tween-20, 5% glycerol, 0.1 mg/mL BSA, 2 mM DTT; 25 C; 0.0125-409.6 nM protein
test.conditions: tags: N-His6-TEV cleaved; C-SNAP kept, Cy3B-labelled; label: tethered on chip by stalled RNA polymerase
observation.type: pKd
# reply with the number alone; pKd is -log10 of concentration in mol/L

-- ask Return pKd for the following binder: Id_ii_S2_P4E.3_K4.2_C4.2_[C-2T]_[T-1C]_H4.2_A4.1_F4.1_T4.2_[G10T]_[T11A] (ssRNA) RNA: UUUGAUUAAUAUGAUAUCGUUCUUUCUUCUAUAUAUUAUAUUCUUUCUCGAUAUCAUAUUAAUCUUU
-- reply 7.87

-- ask Complete the entry with pKd for Ib_S2_P5E.1_K5.1_C5.1_H5.1_A5.1_[T6G]_[A7T]_F5.1_T5.1 (ssRNA) RNA: UUUGAUUAAUAUGAUAUCGUUCUUUCUUGUAUGUUUAUUCUUUCUCGAUAUCAUAUUAAUCUUU
-- reply 8.20

-- ask Return pKd (reported value) for this binder: Ic_S2_P5E.1_K5.1_C5.1_H5.1_A5.1_[T5C]_[T6C]_[A7C]_F5.1_[T8G]_[T9C]_[A10C]_T5.1 (ssRNA) RNA: UUUGAUUAAUAUGAUAUCGUUCUUUCUUGUACCCGCCUUCUUUCUCGAUAUCAUAUUAAUCUUU
-- reply 6.00

-- ask # return recorded pKd for entry UCUCUUCCUAUAUAUAACUCUCUU (ssRNA) [Id_ii_S1_P3E.3_K3.2_C3.2_[T-1C]_H3.2_A3.1_F3.1_T3.2_[T9A]_[A10C]]
-- reply 5.97
